system: HCC827; assay: BrdU proliferation assay, 3D hanging drop cell culture; type: cell-based, human; conditions: Homo sapiens, HCC827, 3D, BrdU, n = 2, read-out: Proliferation Assay IC50 ± SD
I'd appreciate it if you could supply IC50 values for the items below.
Answers are plain numbers, in µM.

N#C/C(=C\c1ccc(-c2ccc(Cl)cc2)o1)c1nc2ccccc2[nH]1 [Compound 20]	0.16

Consider now this further compound.
Please give the documented IC50 of CC(C)NC(=N)c1ccc2nc(-c3ccc(-c4ccc(Cl)cc4)o3)sc2c1 [Compound 8]
17.8

---

assay: MTS cytotoxicity assay, 2D cell culture, normal lung fibroblasts; conditions: human, MRC-5 normal lung fibroblasts, 2D culture
I'd appreciate it if you could supply IC50 at 72 h values for the items below.
One number for each entry, in µM.

CC(C)NC(=N)c1ccc2nc(-c3ccc(-c4ccc([N+](=O)[O-])cc4)o3)sc2c1	21.7

Consider now this further compound.
Please give the documented IC50 at 72 h of Cl.O=[N+]([O-])c1ccc(-c2ccc(-c3nc4ccc(C5=NCCN5)cc4s3)o2)cc1
3.11

---

assay: in vitro; conditions: human
I'd appreciate it if you could supply IC50 at 72 h values for the items below.

COc1cccc2c1C(=O)c1c(O)c3c(c(O)c1C2=O)C[C@@](O)(C(=O)CO)C[C@@H]3O[C@H]1C[C@H](N)[C@H](O)[C@H](C)O1 [Doxorubicin, reference compound]	600 nM
N#C/C(=C\c1ccc(-c2ccc(Cl)cc2)o1)c1nc2ccccc2s1 [Compound 22]	> 50000 nM

Please give the documented IC50 at 72 h of CN[C@@H]1C[C@H]2O[C@@](C)([C@@H]1OC)n1c3ccccc3c3c4c(c5c6ccccc6n2c5c31)C(=O)NC4 [Staurosporine, reference compound]
31 nM

---

I'd appreciate it if you could supply pIC50 values for the items below.
system: NCI-H358; experiment: Cytotoxicity (viability) assay, 3D hanging drop cell culture; conditions: Homo sapiens, NCI-H358, 72 h, read-out: Cytotoxicity Assay IC50 ± SD; NCI-H358 3D
One number for each entry, as −log10 of the molar value.

Cl.Clc1ccc(-c2ccc(-c3nc4ccc(C5=NCCN5)cc4s3)o2)cc1 [Compound 9]	4.81

Consider now this further molecule.
Please give the documented pIC50 of CC(C)NC(=N)c1ccc2nc(-c3ccc(-c4ccc(Cl)cc4)o3)sc2c1 [Compound 8]
4.80

---

system: A549; test: MTS cytotoxicity assay, 2D cell culture; settings: Homo sapiens, A549, 72 h, read-out: Cytotoxicity Assay IC50 ± SD; A549 2D, 72 h, MTS; n = 2
I'd appreciate it if you could supply IC50 values for the items below.
Numbers only, in µM.

Solved entries:
CC(C)NC(=N)c1ccc2nc(-c3ccc(-c4ccc([N+](=O)[O-])cc4)o3)sc2c1	8.76
CC(C)NC(=N)c1ccc2nc(-c3ccc(-c4ccc(Cl)cc4)o3)sc2c1	6.75

Please tell me the measured IC50 for COc1cccc2c1C(=O)c1c(O)c3c(c(O)c1C2=O)C[C@@](O)(C(=O)CO)C[C@@H]3O[C@H]1C[C@H](N)[C@H](O)[C@H](C)O1 [Doxorubicin, reference compound] ; system: A549.
1.31

---

assay: Solubility in water (stock solutions)
ENDPOINT LABEL: solubility (µM)
Answers are plain numbers, in µM.

Solved entries:
Cl.Clc1ccc(-c2ccc(-c3nc4ccc(C5=NCCN5)cc4s3)o2)cc1	1320
CC(C)NC(=N)c1ccc2nc(-c3ccc(-c4ccc(Cl)cc4)o3)sc2c1	3000
CC(C)NC(=N)c1ccc2nc(-c3ccc(-c4ccc([N+](=O)[O-])cc4)o3)sc2c1	3000

Please give the documented solubility of Cl.O=[N+]([O-])c1ccc(-c2ccc(-c3nc4ccc(C5=NCCN5)cc4s3)o2)cc1
1720
